Form field: viability, T/C (one value per entry).
System: SW 1271 complex spheroids, viability
Experiment: Anticancer human tumor SW 1271 cell line growth inhibition [LSD1];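 note: spheroids exposed to agents for 7 days before luminescence read; 100% = DMSO vehicle control viability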
Details: second compound 1 µM; first compound 0.0949 µM; active compounds read low
Enter your answer as a number in %; do not include the unit.

For the compound Nc1ccn(C2OC(CO)C(O)C2(F)F)c(=O)n1 (stereo not drawn) + NC1CCC(NC2CC2c2ccccc2)CC1 , what viability, T/C is on record? 56.1

Recorded viability, T/C of COc1cc(C2c3cc4c(cc3C(OC3OC5COC(C)OC5C(O)C3O)C3COC(=O)C23)OCO4)cc(OC)c1O (stereo not drawn) + NC1CCC(NC2CC2c2ccccc2)CC1 , please. 74.2

Value lookup for viability, T/C; key = CCN(c1cc(-c2ccc(CN3CCOCC3)cc2)cc(C(=O)NCc2c(C)cc(C)[nH]c2=O)c1C)C1CCOCC1 + NC1CC1c1ccc(-c2cccc(O)c2)cc1 83.8

Query: viability, T/C; subject: Nc1ncn(C2CC(O)C(CO)S2)c(=O)n1 (stereo not drawn) + NC1CCC(NC2CC2c2ccccc2)CC1 89.2

Any idea what its viability, T/C is? The compound is CCc1c2c(nc3ccc(O)cc13)-c1cc3c(c(=O)n1C2)COC(=O)[C@]3(O)CC + NC1CCC(NC2CC2c2ccccc2)CC1 5.83

Taken from PubChem BioAssay AID1918941.
